tested_system: Signal transducer and activator of transcription 3 (Homo sapiens)
Sequence (P40763 whole entry): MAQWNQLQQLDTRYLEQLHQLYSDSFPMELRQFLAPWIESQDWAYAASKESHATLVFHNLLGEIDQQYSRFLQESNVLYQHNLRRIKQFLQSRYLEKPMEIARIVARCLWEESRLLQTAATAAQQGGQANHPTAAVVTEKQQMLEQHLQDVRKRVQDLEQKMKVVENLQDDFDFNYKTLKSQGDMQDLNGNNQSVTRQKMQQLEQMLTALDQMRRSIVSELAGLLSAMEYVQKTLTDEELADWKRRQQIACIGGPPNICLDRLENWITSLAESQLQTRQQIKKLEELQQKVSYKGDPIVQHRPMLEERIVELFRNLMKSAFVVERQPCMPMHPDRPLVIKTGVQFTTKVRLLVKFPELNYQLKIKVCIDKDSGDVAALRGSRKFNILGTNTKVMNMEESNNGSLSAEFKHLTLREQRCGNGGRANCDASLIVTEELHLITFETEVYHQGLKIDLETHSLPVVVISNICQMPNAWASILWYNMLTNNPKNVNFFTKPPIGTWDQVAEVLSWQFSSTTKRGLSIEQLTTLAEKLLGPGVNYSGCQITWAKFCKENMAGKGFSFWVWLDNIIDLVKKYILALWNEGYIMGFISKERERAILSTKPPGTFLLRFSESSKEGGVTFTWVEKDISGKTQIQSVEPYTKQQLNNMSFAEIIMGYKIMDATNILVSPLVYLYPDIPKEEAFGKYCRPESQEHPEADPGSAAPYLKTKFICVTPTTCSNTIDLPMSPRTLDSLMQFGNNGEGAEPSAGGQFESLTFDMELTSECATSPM
recorded_metric: pIC50
// pIC50 is dimensionless: -log10 of concentration (M)

So what's the measured pIC50 for this one? O=C(Nc1nonc1-c1ccc(Cl)cc1)c1ccc(C(F)(F)F)cc1
4.75

###

tested_system: Growth factor receptor-bound protein 2 (Homo sapiens)
Sequence (P62993 whole entry): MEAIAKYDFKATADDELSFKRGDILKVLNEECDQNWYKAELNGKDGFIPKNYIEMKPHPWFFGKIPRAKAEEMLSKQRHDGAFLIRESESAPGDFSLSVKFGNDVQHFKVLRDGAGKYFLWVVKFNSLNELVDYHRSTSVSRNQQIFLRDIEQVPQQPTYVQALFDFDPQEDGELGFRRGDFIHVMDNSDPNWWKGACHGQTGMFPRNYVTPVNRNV
recorded_metric: IC50

Observed IC50 on Growth factor receptor-bound protein 2 (Homo sapiens) for O=C(Nc1nonc1-c1ccc(Cl)cc1)c1ccc(C(F)(F)F)cc1 , please.
> 100 µM
